Target: T1, His-LXRα/FLAG-RXRα heterodimer (ligand binding domains of human LXRα and human RXRα) (human, UniProt Q13133 164-447; P19793 201-462)
T1 construct: Co-expressed in E. coli BL21(DE3) from pET15b-LXRα/FLAG-RXRα and purified together on Ni2+ resin; also called His-LXRα and FLAG-RXRα; heterodimer comprising LXRα and RXRα
T1 sequence 1: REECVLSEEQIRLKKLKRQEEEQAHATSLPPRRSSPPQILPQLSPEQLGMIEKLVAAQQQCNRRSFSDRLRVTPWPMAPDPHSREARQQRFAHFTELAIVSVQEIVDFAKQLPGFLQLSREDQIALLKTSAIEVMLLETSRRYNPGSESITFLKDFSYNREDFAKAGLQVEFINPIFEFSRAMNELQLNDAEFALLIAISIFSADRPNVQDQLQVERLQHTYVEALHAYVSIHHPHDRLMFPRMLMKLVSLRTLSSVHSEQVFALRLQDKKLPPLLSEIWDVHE
T1 sequence 2: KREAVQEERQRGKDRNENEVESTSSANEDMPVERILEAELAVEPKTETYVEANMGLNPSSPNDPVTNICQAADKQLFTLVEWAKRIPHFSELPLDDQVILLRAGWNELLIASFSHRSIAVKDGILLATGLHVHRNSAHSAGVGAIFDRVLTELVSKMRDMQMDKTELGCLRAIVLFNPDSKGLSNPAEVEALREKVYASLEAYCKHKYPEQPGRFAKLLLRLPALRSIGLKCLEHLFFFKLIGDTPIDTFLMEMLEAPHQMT
Assay: FRET (665/620 nm), anti-His tag antibody + streptavidin, biotinylated peptide; with Compound A, relative to DMSO-only control
No end group written: not given here. *: point of attachment. Biotin = O=C1N[C@H]2[C@H](CS[C@H]2CCCCC(=O)*)N1
Would you kindly list % of control for each of these binders?

// field: % of control; key: Biotin-KESKDHQLLRYLLDKDEKDL [SRC-1-3 peptide KESKDHQLLRYLLDKDEKDL (the third LXXLL motif from the N-terminal side of SRC-1)] ; value = 181 % of control

GET /value?item= Biotin-SPAMREAPTSLSQLLDNSGAPNVTIKPPGL (also called ASC2 MR-2) [ASC-2 NR-2 peptide SPAMREAPTSLSQLLDNSGAPNVTIKPPGL (LXXLL motif on the C-terminal side of ASC-2)] &field=% of control returns 254 % of control

The binder listed as Biotin-QKPTSGPQTPQAQQKSLLQQLLTE [SRC-1-4 peptide QKPTSGPQTPQAQQKSLLQQLLTE (the fourth LXXLL motif from the N-terminal side of SRC-1)] has a reported % of control of 207 % of control

response.value for Biotin-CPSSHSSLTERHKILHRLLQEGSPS [SRC-1-2 peptide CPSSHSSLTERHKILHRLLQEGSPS (the second LXXLL motif from the N-terminal side of SRC-1)] (field: % of control) = 267 % of control

response.value for Biotin-DGTPPPQEAEEPSLLKKLLLAPANT [PGC-1α peptide DGTPPPQEAEEPSLLKKLLLAPANT (aa 130-154)] (field: % of control) = 362 % of control

In plain terms, Biotin-HGTSLKEKHKILHRLLQDSSSPVDL [TIF2 peptide HGTSLKEKHKILHRLLQDSSSPVDL (aa 679-703)] has a documented % of control of 267 % of control

Entry Biotin-NKDVTLTSPLLVNLLQSDISAGHFGVNNKQ [ASC-2 NR-1 peptide NKDVTLTSPLLVNLLQSDISAGHFGVNNKQ (LXXLL motif on the N-terminal side of ASC-2)] , % of control reported as 156 % of control
